TEST_SYSTEM: MAP kinase-activated protein kinase 2 (Homo sapiens)
Sequence (P49137 whole entry): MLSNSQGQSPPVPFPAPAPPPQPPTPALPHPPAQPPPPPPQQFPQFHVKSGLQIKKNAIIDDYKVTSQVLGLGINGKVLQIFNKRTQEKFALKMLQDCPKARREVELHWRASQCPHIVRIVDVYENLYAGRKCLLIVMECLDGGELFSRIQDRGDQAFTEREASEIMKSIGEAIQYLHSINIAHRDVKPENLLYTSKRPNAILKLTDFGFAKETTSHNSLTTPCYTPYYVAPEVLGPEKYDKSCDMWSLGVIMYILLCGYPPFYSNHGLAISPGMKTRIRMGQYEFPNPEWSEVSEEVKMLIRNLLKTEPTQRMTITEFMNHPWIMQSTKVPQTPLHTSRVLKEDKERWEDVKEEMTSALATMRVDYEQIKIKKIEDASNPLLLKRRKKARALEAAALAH
READOUT_LABEL: IC50
# output: number + unit

Query string: Specify IC50 for `Cn1cc(/C=C2\Oc3cccc(O)c3C2=O)c2c(-c3ccc(C(=O)NCCO)cc3)ccnc21` , system MAP kinase-activated protein kinase 2 (Homo sapiens).
Result string: 6.5 nM

* * *

TEST_SYSTEM: UniProt:P00519
Sequence (P00519 whole entry): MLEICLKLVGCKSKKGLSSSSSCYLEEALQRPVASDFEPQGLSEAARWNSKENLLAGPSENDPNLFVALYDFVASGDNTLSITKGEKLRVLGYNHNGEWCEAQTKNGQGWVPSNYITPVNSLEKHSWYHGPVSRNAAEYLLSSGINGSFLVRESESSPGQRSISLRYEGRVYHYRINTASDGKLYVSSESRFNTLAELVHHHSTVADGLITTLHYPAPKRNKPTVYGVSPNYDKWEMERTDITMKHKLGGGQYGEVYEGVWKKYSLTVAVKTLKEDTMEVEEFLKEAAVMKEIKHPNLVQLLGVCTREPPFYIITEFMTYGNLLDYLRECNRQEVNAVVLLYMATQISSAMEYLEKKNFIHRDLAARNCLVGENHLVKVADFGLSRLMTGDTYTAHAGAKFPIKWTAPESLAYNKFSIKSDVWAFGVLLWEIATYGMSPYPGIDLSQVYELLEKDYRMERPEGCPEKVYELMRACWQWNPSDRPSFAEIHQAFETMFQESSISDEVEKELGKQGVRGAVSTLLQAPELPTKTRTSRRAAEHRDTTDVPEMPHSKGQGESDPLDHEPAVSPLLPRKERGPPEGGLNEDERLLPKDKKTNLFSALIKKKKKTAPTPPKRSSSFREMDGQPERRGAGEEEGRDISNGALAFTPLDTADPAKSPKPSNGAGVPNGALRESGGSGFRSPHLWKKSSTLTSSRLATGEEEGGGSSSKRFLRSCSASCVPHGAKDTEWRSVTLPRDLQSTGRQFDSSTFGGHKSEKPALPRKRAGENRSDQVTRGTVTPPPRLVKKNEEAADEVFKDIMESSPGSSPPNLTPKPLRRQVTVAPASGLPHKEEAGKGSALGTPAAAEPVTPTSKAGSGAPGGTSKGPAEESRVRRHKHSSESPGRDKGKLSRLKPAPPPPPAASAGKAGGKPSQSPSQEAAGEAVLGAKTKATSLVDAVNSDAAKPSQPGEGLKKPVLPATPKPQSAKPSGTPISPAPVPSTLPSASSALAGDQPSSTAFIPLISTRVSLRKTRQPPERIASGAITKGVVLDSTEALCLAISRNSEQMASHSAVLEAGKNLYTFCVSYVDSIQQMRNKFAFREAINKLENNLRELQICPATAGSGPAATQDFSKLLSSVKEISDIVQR
READOUT_LABEL: pIC50
Value format note: pIC50 is -log10 of concentration (mol/L); just state the number.

Query string: Give pIC50; test system UniProt:P00519; compound `Cn1cc(/C=C2\Oc3cccc(O)c3C2=O)c2c(-c3ccc(C(=O)NCCO)cc3)ccnc21`
Result string: 5.01
